# Species on record: Rattus norvegicus
# Experiment: Percent of maximal acetylcholine (ACh)-induced vasorelaxation of the rat aorta
# Type: functional
As shown below, each of these molecules has a reported Emax value.
Could you give me the number in %? Just the number is fine.

Reference set, count: 4
{"Smiles Repr": "O=C1C(Nc2ccc(C(F)(F)F)cc2)=CC(=O)c2ncccc21", "Value Kind": "Emax", "Display Unit": "%", "Recorded Value": 91}
{"Smiles Repr": "O=C1C(Nc2ccc(OC(F)(F)F)cc2)=CC(=O)c2ncccc21", "Value Kind": "Emax", "Display Unit": "%", "Recorded Value": 88}
{"Smiles Repr": "O=C1C(Nc2ccc(F)c(F)c2)=CC(=O)c2ncccc21", "Value Kind": "Emax", "Display Unit": "%", "Recorded Value": 92}
{"Smiles Repr": "O=C1C=C(Nc2cccc(F)c2)C(=O)c2cnccc21", "Value Kind": "Emax", "Display Unit": "%", "Recorded Value": 89}

Kindly review the next molecule as well.
// query // returns reported Emax for input O=C1C(Nc2cc(F)cc(F)c2)=CC(=O)c2ncccc21
// result 91
